Entry source: patent US20130296358A1

Would you kindly list Emax for each of these molecules?
- measuredTarget: human recombinant ghrelin receptor (GHS-R1a) (Homo sapiens)
- Construct: host or cells: CHO-K1
- Sequence (Q92847 whole entry): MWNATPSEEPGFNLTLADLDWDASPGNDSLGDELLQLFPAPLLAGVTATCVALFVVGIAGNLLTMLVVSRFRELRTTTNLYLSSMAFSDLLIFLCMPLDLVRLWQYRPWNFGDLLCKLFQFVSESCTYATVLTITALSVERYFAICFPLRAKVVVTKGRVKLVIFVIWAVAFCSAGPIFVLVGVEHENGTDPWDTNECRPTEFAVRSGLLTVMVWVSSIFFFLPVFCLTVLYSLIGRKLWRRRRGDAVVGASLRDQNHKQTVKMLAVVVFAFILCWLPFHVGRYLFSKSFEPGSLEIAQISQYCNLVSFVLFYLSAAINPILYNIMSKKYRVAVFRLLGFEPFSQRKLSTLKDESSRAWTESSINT
- protocol: Calcium assay, CHO-K1 cells expressing hGHS-R1a (Fluo-4)
- Format: cell-based
- conditionDetails: CHO-K1, relative to the Emax induced by MK-0677 (defined as 100%); read-out: hGHS-R1a Ca assay Emax/%
Field format: number, assumed %, no unit text.

Sample CN1CN(c2ccccc2)C2(CCCN(C(=O)[C@@H](COCc3ccccc3)NC(=O)C(C)(C)N)C2)C1=O (single isomer, unassigned) [Example 1.61] ; Emax observed: 73

# molecule COc1ccc(C2CN(C)C(=O)C23CCCN(C(=O)[C@@H](COCc2ccccc2)NC(=O)C(C)(C)N)C3)cc1 (stereo partly drawn) [Example 1.74] ; its Emax = 103

Note to self: Emax recorded for CN1CC(c2ccccc2)C2(CCN(C(=O)[C@@H](COCc3ccccc3)NC(=O)C(C)(C)N)C2)C1=O (single isomer, unassigned) [Example 8.0] was 101

----------
- Tested on: rat fundus
- protocol: Rat fundus contractility assay (EFS-induced contraction of muscle strips)
- conditionDetails: increase of EFS-induced contraction, mean of preparations from at least 3 animals
readoutType: log10 of EC50 (log10 of the value in nM)
Annotation: log10 of EC50, nM basis.

Entry CC(C)N1CC(c2ccccc2)C2(CCCN(C(=O)[C@@H](COCc3ccccc3)NC(=O)C(C)(C)N)C2)C1=O (single isomer, unassigned) [Example 1.6] , log10 of EC50 reported as 2.57

response.value for CN1CC(c2ccccc2)C2(CCCN(C(=O)[C@@H](COCc3ccccc3)NC(=O)C(C)(C)N)C2)C1=O (single isomer, unassigned) [Example 1.20] (field: log10 of EC50) = 2.59

Looking up CC(C)N1CC(c2ccc(F)cc2)C2(CCCN(C(=O)[C@@H](COCc3ccccc3)NC(=O)C(C)(C)N)C2)C1=O (single isomer, unassigned) [Example 1.19] , I found its log10 of EC50 recorded as 1.36

get_value(item= CN1C(=O)C2(CCCN(C(=O)[C@@H](COCc3ccccc3)NC(=O)C(C)(C)N)C2)C1c1ccccc1 (single isomer, unassigned) [Example 2.0(iii)] , readout=log10 of EC50) returns 1.85

log10 of EC50 reported for this compound CN1CC(c2ccccc2)C2(CCCN(C(=O)[C@@H](COCc3ccccc3)NC(=O)C(C)(C)N)C2)C1=O (single isomer, unassigned) [Example 1.21] : 1.92

Record CN1C(=O)C2(CCCN(C(=O)[C@@H](COCc3ccccc3)NC(=O)C(C)(C)N)C2)C1c1ccccc1 (single isomer, unassigned) [Example 2.0(ii)] , field log10 of EC50: 1.23

The compound CC(C)N1CC(c2ccccc2)C2(CCCN(C(=O)[C@@H](COCc3ccccc3)NC(=O)C(C)(C)N)C2)C1=O (single isomer, unassigned) [Example 1.5] showed log10 of EC50 equal to 1.54

For this compound ( CN1CC(c2ccccc2)C2(CCCN(C(=O)[C@@H](CCCc3ccccc3)NC(=O)C(C)(C)N)C2)C1=O (single isomer, unassigned) [Example 1.33] ), measured log10 of EC50 is 1.92

CC(C)N1CC(c2ccc(F)cc2)C2(CCCN(C(=O)[C@@H](COCc3ccccc3)NC(=O)C(C)(C)N)C2)C1=O (single isomer, unassigned) [Example 1.18] yielded log10 of EC50 of 2.17

Short answer for CN1CC(c2ccccc2)C2(CCCN(C(=O)[C@@H](CCCc3ccccc3)NC(=O)C(C)(C)N)C2)C1=O (single isomer, unassigned) [Example 1.32] : log10 of EC50 was 1.28
